Consider the following molecules; for each one, report its growth inhibition.
experiment: NCI Yeast Anticancer Drug Screen. Data for the bub3 strain (AID 167); conditions: S. cerevisiae bub3 mutant strain, at 50.0 µM, hits give high values
Compounds without any hit were thinned out: in the full panel of roughly 79,000, 15% have a hit.
Numbers only, in %.

molecule=O=C1OCC(c2ccccc2)(c2ccccc2)C(=O)N1O measured_metric="growth inhibition" unit_string=% observed_value=5.65

Parameter requested: growth inhibition. Apply to each item below.
1. COc1cc(CCNC(=O)CC(C)C)ccc1OCc1ccccc1
2. NCCc1c(-c2cccnc2)[nH]c2ccccc12
3. CCOC(=O)COc1c(C)cccc1C
4. CN(C)CC(CN(C)C)C(=O)O
5. CCOC(=O)CC(=O)C(=O)NNC1=NCCN1
6. CCCC(=O)Nc1cccc(C(F)(F)F)c1
7. O=c1[nH]c(=S)[nH]n1C(=S)n1[nH]c(=S)[nH]c1=O

Output:
1: -11.9; 2: 7.6; 3: 32.5; 4: -6.25; 5: 13.3; 6: 26.9; 7: 13.1

Parameter requested: growth inhibition. Apply to each item below.
1. O=C1CC(NC(=O)C(F)(F)F)c2c1csc2Br (stereo not drawn)
2. NC(=O)Cc1nc(O)cc(=O)[nH]1
3. CCCOC(=O)c1c(Cl)c(Cl)c(Cl)c(Cl)c1C(=O)OCCC
4. CC(CN(C)C)CN1c2ccccc2Sc2ccccc21 (stereo not drawn)
5. CC1CC(O)CC(C)(C)C1.CC1CC(O)CC(C)(C)C1.CC1CC(O)CC(C)(C)C1.CC1CC(O)CC(C)(C)C1.[Ti] (stereo not drawn)

Output:
-11
-1.9
-15.2
5.65
32.5
